# Tested on: DU-145
# assay_procedure: Cytotoxicity against human DU145 cells after 72 hrs by MTT assay
# Assay type: functional, cell-based
# experimental_context: DU-145, 72 h
Consider the following compounds; for each one, report its pIC50.
Quick note: pIC50 means taking -log10 of the concentration in moles per liter.

*Q* Name the reported pIC50 value associated with the compound COc1ccc(-c2coc3cc(O)ccc3c2=O)cc1N(CCCl)CCCl
*A* 4.65

*Q* Repeat for the following compound: COc1ccc(-c2coc3cc(OCC=C(C)C)ccc3c2=O)cc1N(CCCl)CCCl
*A* 4.92

*Q* Another compound: CCCCOc1ccc2c(=O)c(-c3ccc(OC)c(N(CCCl)CCCl)c3)coc2c1
*A* 5.08

*Q* Request: N[C@@H](Cc1ccc(N(CCCl)CCCl)cc1)C(=O)O [MELPHALAN]
*A* 4.02

*Q* Then CCOc1ccc2c(=O)c(-c3ccc(OC)c(N(CCCl)CCCl)c3)coc2c1 ?
*A* 4.62

*Q* Likewise for COc1ccc(-c2coc3cc(OCc4ccccc4)ccc3c2=O)cc1N(CCCl)CCCl ?
*A* 4.58

*Q* Please give the result for COc1ccc(-c2coc3cc(OC4CCCCC4)ccc3c2=O)cc1N(CCCl)CCCl too.
*A* 4.95

*Q* Record: COc1ccc(-c2coc3cc(OC(C)C)ccc3c2=O)cc1N(CCCl)CCCl
*A* 4.71

*Q* Try COc1ccc(-c2coc3cc(OC4CCCCCC4)ccc3c2=O)cc1N(CCCl)CCCl next.
*A* 5.00

*Q* Moving on to COc1ccc(-c2coc3cc(OCCc4ccccc4)ccc3c2=O)cc1N(CCCl)CCCl
*A* 5.12

*Q* Param item: CCC(C)Oc1ccc2c(=O)c(-c3ccc(OC)c(N(CCCl)CCCl)c3)coc2c1 (stereo not drawn)
*A* 4.54

*Q* Can you check COc1ccc(-c2coc3cc(OCc4ccc(C)cc4)ccc3c2=O)cc1N(CCCl)CCCl next?
*A* 4.73

*Q* Could you do the same for CCCOc1ccc2c(=O)c(-c3ccc(OC)c(N(CCCl)CCCl)c3)coc2c1 , please?
*A* 4.54

*Q* What would you report for C=CCOc1ccc2c(=O)c(-c3ccc(OC)c(N(CCCl)CCCl)c3)coc2c1 ?
*A* 4.81

*Q* Same question, C=C(C)COc1ccc2c(=O)c(-c3ccc(OC)c(N(CCCl)CCCl)c3)coc2c1 this time
*A* 4.81

*Q* Now the same for COc1ccc(-c2coc3cc(OCCC(C)C)ccc3c2=O)cc1N(CCCl)CCCl
*A* 5.18

*Q* Proceed to COc1ccc(-c2coc3cc(OC4CCCC4)ccc3c2=O)cc1N(CCCl)CCCl
*A* 4.96
